- EXPERIMENTAL_SYSTEM: human RXFP1 (Homo sapiens, UniProt Q9HBX9)
- Construct: expressed in transfected cells
- METHOD: RXFP1 cAMP assay (hRXFP1 HEK293 cAMP assay, HTRF)
- Format: cell-based
- SETUP_CONDITIONS: HEK293 cells stably expressing human RXFP1, 30 min at room temperature, read-out: cAMP hRXFP1 HEK293 Assay EC50
- Method: RXFP1 Cyclic Adenosine Monophosphate (cAMP) Assays. […] Cells were dissociated and suspended in assay buffer. The assay buffer was HBSS buffer (with calcium and magnesium) containing 20 mM HEPES, 0.05% BSA, and 0.5 mM IBMX. […] The level of intracellular cAMP was determined using the HTRF HiRange cAMP assay reagent kit (Cisbio) according to manufacturer's instructions. […]
pEC50: −log10 of the molar value.
MEASUREMENT_NAME: pEC50

COMPOUND	EXPERIMENTAL_SYSTEM	MEASUREMENT_NAME	EXPERIMENTAL_RESULT
COc1ccc(-c2cc(C(O)C(F)(F)F)ccc2F)cc1C(=O)N[C@@H]1C2CCC(/C2=C/C2CC2)[C@@H]1C(=O)Nc1ccc(F)c(C(F)(F)F)c1 (stereo partly drawn)	human RXFP1 (Homo sapiens, UniProt Q9HBX9)	pEC50	8.52
COc1ccc(C2=NOC3CC(CO)CC23)cc1C(=O)N[C@H]1[C@@H](C(=O)NC2(C)CCCC2)[C@H]2CC[C@@H]1/C2=C\C1CC1 (stereo partly drawn)	human RXFP1 (Homo sapiens, UniProt Q9HBX9)	pEC50	8.41
COc1ccc(-c2cnc3c(cnn3CC(=O)O)c2)cc1C(=O)N[C@@H]1C2CCC(/C2=C/C(F)(F)F)[C@@H]1C(=O)Nc1ccc(F)c(C(F)(F)F)c1 (stereo partly drawn)	human RXFP1 (Homo sapiens, UniProt Q9HBX9)	pEC50	7.51
COCCN1CCCC1c1ccc(OC)c(C(=O)N[C@@H]2C3CCC(C3=CC3CC3)[C@@H]2C(=O)Nc2ccc(F)c(C(F)(F)F)c2)c1 (stereo partly drawn) [compound 666]	human RXFP1 (Homo sapiens, UniProt Q9HBX9)	pEC50	6.43
COc1ccc(-c2cccc3c2CC(=O)N3)cc1C(=O)N[C@H]1[C@@H](C(=O)Nc2ccc(F)c(C(F)(F)F)c2)[C@H]2CC[C@@H]1/C2=C\C1CC1	human RXFP1 (Homo sapiens, UniProt Q9HBX9)	pEC50	8.62
COc1c(F)cc(C2=NOC3CC(CO)CC23)cc1C(=O)N[C@H]1[C@@H](C(=O)Nc2ccc(F)c(C(F)(F)F)c2)[C@H]2CC[C@@H]1/C2=C\C1CC(F)(F)C1 (stereo partly drawn)	human RXFP1 (Homo sapiens, UniProt Q9HBX9)	pEC50	8.26

---

- EXPERIMENTAL_SYSTEM: human RXFP1 (Homo sapiens)
- Construct: expressed in transfected cells
- METHOD: RXFP1 cAMP assay (hRXFP1 HEK293 cAMP assay, HTRF)
- Format: cell-based
- SETUP_CONDITIONS: HEK293 cells stably expressing human RXFP1, 30 min at room temperature, read-out: cAMP hRXFP1 HEK293 Assay EC50
// returns FALSE unless EC50 is strictly below 0.03 µM, in which case TRUE

MOLECULE	GROUP
CCOC(=O)Cn1cc(-c2ccc(OC)c(C(=O)N[C@@H]3C4CCC(/C4=C/c4ccccc4)[C@@H]3C(=O)Nc3ccc(F)c(C(F)(F)F)c3)c2)cn1 (some centres unmarked)	FALSE
CCO/N=C1\C2CCC1[C@H](C(=O)Nc1ccc(F)c(C(F)(F)F)c1)[C@@H]2NC(=O)c1cc(F)c(F)cc1OC (some centres unmarked)	FALSE
COc1c(F)cc(-c2cc([C@H](OC(=O)NC3CCC3)C(F)(F)F)ccc2F)cc1C(=O)N[C@H]1[C@@H](C(=O)N[C@H](C)C2(C)CC2)[C@H]2CC[C@@H]1/C2=C\C1CC(F)(F)C1	TRUE
COc1ccc(C2=NOC3CC(OC)CC23)cc1C(=O)N[C@@H]1C2CCC(/C2=C/C2CC2)[C@@H]1C(=O)Nc1ccc(F)c(C(F)(F)F)c1 (some centres unmarked)	TRUE
COc1ccc(C2=NOC3COCC23)cc1C(=O)N[C@H]1[C@@H](C(=O)NCC2CC(F)(F)C2)[C@H]2CC[C@@H]1/C2=C\C1CC1 (some centres unmarked)	FALSE
COc1ccc(N2CCCCS2(=O)=O)cc1C(=O)N[C@@H]1C2CCC(/C2=C/C2CC2)[C@@H]1C(=O)Nc1ccc(F)c(C(F)(F)F)c1 (some centres unmarked)	TRUE
COc1c(F)cc(C2=NOC(CO)C2)cc1C(=O)N[C@H]1[C@@H](C(=O)Nc2ccc(F)c(C(F)(F)F)c2)[C@H]2CC[C@@H]1/C2=C\CC(O)C(F)(F)F (some centres unmarked)	TRUE
COc1ccc(C2=NO[C@H]3COC[C@@H]23)cc1C(=O)N[C@H]1[C@@H](C(=O)Nc2ccc(F)c(C(F)(F)F)c2)[C@H]2CC[C@@H]1/C2=C\CC1CCC1	TRUE
COc1ccc(-c2cc(C(F)(F)F)cnc2F)cc1C(=O)N[C@@H]1C2CCC(/C2=C/C2CC2)[C@@H]1C(=O)Nc1ccc(F)c(C(F)(F)F)c1 (some centres unmarked)	TRUE
CCC=C1C2CCC1[C@H](C(=O)Nc1ccc(F)c(C(F)(F)F)c1)[C@@H]2NC(=O)c1cc(F)c(F)cc1OC (some centres unmarked)	FALSE
COc1ccc(-c2cc([C@H](OC(=O)NC3CCC3)C(F)(F)F)ccc2F)cc1C(=O)N[C@@H]1C2/C(=C\C(F)(F)F)C(C(O)C2O)[C@@H]1C(=O)Nc1ccc(F)c(C(F)(F)F)c1 (some centres unmarked)	FALSE

---

- EXPERIMENTAL_SYSTEM: human RXFP1 (Homo sapiens)
- Construct: expressed in transfected cells
- Sequence (Q9HBX9 1-757): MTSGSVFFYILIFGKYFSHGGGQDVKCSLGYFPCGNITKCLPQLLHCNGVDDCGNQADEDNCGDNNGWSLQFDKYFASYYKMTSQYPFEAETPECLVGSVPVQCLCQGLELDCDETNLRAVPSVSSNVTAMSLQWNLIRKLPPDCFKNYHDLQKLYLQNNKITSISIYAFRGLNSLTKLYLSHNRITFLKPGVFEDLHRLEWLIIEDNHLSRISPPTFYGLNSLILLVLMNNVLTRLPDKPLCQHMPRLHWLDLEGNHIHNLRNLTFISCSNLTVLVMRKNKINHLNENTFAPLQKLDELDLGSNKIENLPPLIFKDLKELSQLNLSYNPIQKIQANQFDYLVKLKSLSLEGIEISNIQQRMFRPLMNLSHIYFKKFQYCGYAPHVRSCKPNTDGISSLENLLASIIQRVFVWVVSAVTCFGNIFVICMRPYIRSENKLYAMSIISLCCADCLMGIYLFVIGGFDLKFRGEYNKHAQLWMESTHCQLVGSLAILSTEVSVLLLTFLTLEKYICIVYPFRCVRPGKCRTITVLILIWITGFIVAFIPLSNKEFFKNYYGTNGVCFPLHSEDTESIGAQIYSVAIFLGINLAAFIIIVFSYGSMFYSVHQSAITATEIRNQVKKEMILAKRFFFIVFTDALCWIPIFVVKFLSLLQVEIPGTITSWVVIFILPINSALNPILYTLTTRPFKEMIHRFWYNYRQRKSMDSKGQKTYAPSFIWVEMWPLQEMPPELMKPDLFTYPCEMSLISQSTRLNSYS
- METHOD: RXFP1 cAMP assay (hRXFP1 HEK293 cAMP assay, HTRF)
- Format: cell-based
- SETUP_CONDITIONS: HEK293 cells stably expressing human RXFP1, 30 min at room temperature, read-out: cAMP hRXFP1 HEK293 Assay EC50
pEC50: −log10 of the molar value.
Label -1 if pEC50 falls below 8; label 1 in every other case.

COMPOUND	GROUP
O=C(N[C@H]1[C@@H](C(=O)Nc2ccc(F)c(C(F)(F)F)c2)[C@H]2CC[C@@H]1/C2=C\C1CC1)c1cc(C2=NOC3CC(CO)CC23)ccc1OCC(F)F (stereo partly shown) [compound 781]	1
COc1cc(F)c(F)cc1C(=O)N[C@@H]1C2CCC(/C2=C/c2cncnc2)[C@@H]1C(=O)Nc1ccc(F)c(C(F)(F)F)c1 (stereo partly shown)	-1
CCC/C=C/C=C1\C2CCC1[C@H](C(=O)Nc1ccc(F)c(C(F)(F)F)c1)[C@@H]2NC(=O)c1cc(F)c(F)cc1OC (stereo partly shown)	-1
COc1ccc(-c2cccnc2F)cc1C(=O)N[C@H]1[C@@H](C(=O)Nc2ccc(F)c(C(F)(F)F)c2)[C@H]2CC[C@@H]1/C2=C/c1ccccc1	-1
COc1ccc(C2=NOC3COCC23)cc1C(=O)N[C@H]1[C@@H](C(=O)NCC2(c3ccccc3)CC2)[C@H]2CC[C@@H]1/C2=C\C1CC1 (stereo partly shown)	-1
O=C(N[C@H]1[C@@H](C(=O)Nc2ccc(F)c(C(F)(F)F)c2)[C@H]2CC[C@@H]1/C2=C\C1CC1)c1cc(C2=NOC3CC(CO)CC23)ccc1F (single isomer, unassigned) [compound 717]	-1
COc1ccc(-c2cc(C(OC(=O)Nc3cccc(F)c3)C(F)(F)F)ccc2F)cc1C(=O)N[C@@H]1C2CCC(/C2=C/C2CC2)[C@@H]1C(=O)Nc1ccc(F)c(C(F)(F)F)c1 (stereo partly shown)	1
COc1ccc(C2=NO[C@H]3COC[C@@H]23)cc1C(=O)N[C@H]1[C@@H](C(=O)Nc2ccc(F)c(C(F)(F)F)c2)[C@H]2CC[C@@H]1/C2=C\CCC(F)(F)F	1
COc1ccc(C2=NOC3CC(C(C)(C)O)CC23)cc1C(=O)N[C@H]1[C@@H](C(=O)Nc2ccc(F)c(C(F)(F)F)c2)[C@H]2CC[C@@H]1/C2=C\C1CC1 (single isomer, unassigned) [compound 579]	-1
CCC/C=C1\[C@H]2CC[C@@H]1[C@H](C(=O)Nc1ccc(F)c(C(F)(F)F)c1)[C@@H]2NC(=O)c1cc(C2=NOC3CC(CO)CC23)ccc1OC (stereo partly shown)	1
COc1ccc(C2=NO[C@H]3C[C@H](CO)C[C@@H]23)cc1C(=O)N[C@H]1[C@@H](C(=O)NC23CC(C)(C2)C3)[C@H]2CC[C@@H]1/C2=C\C[C@@H](O)C(F)(F)F	1
COc1ccc(C2CCCN2CC(C)(C)O)cc1C(=O)N[C@@H]1C2CCC(C2=CC2CC2)[C@@H]1C(=O)Nc1ccc(F)c(C(F)(F)F)c1 (stereo partly shown) [compound 607]	-1
COc1ccc(C2=NOC3COCC23)cc1C(=O)N[C@H]1[C@@H](C(=O)NC2CCCCC2)[C@H]2CC[C@@H]1/C2=C\C1CC1 (stereo partly shown)	-1
COc1ccc(-c2cccc3c2ccn3CC(C)(C)O)cc1C(=O)N[C@@H]1C2CCC(/C2=C/C2CCCC2)[C@@H]1C(=O)Nc1ccc(F)c(C(F)(F)F)c1 (stereo partly shown)	1
CC=C1C2CCC1[C@H](C(=O)Nc1ccc(F)c(C(F)(F)F)c1)[C@@H]2NC(=O)c1cc(F)c(F)cc1OC (stereo partly shown)	-1
COc1cc(F)c(F)cc1C(=O)N[C@@H]1C2CCC(/C2=C/C(=O)OC(C)(C)C)[C@@H]1C(=O)Nc1ccc(F)c(C(F)(F)F)c1 (stereo partly shown)	-1
COc1ccc([C@@H]2CO[C@H]3[C@@H]2OC[C@H]3O)cc1C(=O)N[C@H]1[C@@H](C(=O)Nc2ccc(F)c(C(F)(F)F)c2)[C@H]2CC[C@@H]1/C2=C\C1CC1	-1
COc1cc(F)c(F)cc1C(=O)N[C@@H]1C2CCC(/C2=C/c2ccc(F)cc2)[C@@H]1C(=O)Nc1ccc(F)c(C(F)(F)F)c1 (stereo partly shown)	-1
COc1ccc(C2=NOC3C(O)CCC23)cc1C(=O)N[C@H]1[C@@H](C(=O)Nc2ccc(F)c(C(F)(F)F)c2)[C@H]2CC[C@@H]1/C2=C\C1CC1 (single isomer, unassigned) [compound 706]	-1
